experiment: Selectivity index, ratio of CC50 for human MT4 cells to EC50 for NNRTI-resistant HIV-1 RES056 infected in human MT4 cells; assay type: toxicity, cell-based; conditions: read-out: Selectivity Index
Each entry below carries its reported selectivity ratio.
Simply state the number, no unit and no words.

In the examples that follow, each entry is paired with its recorded selectivity ratio.
smiles notation: Cc1cc(/C=C/C#N)cc(C)c1Oc1nc(NC2CCN(Cc3ccc(C(N)=O)cc3)CC2)ncc1-c1ccccc1F
assay endpoint: selectivity ratio
value reported: 55
//
smiles notation: Cc1cc(/C=C/C#N)cc(C)c1Oc1nc(NC2CCN(Cc3ccc(S(C)(=O)=O)cc3)CC2)ncc1-c1ccccc1O
assay endpoint: selectivity ratio
value reported: 18
//
smiles notation: Cc1cc(/C=C/C#N)cc(C)c1Oc1nc(NC2CCN(Cc3ccc(S(N)(=O)=O)cc3)CC2)ncc1-c1ccccc1N
assay endpoint: selectivity ratio
value reported: 60

[in] For the compound shown here, Cc1cc(/C=C/C#N)cc(C)c1Oc1nc(NC2CCN(Cc3ccc(S(N)(=O)=O)cc3)CC2)ncc1-c1cccc(N)c1 , give the reported selectivity ratio.
[out] 269

[in] // query selectivity ratio value for entry Cc1cc(/C=C/C#N)cc(C)c1Oc1nc(NC2CCN(Cc3ccc(C(N)=O)cc3)CC2)ncc1-c1cccc(O)c1
[out] 1050

====

experiment: Clearance in Sprague-Dawley rat at 2 mg/kg, iv; assay type: ADME, organism-based; conditions: in vivo
assay endpoint: clearance (mL/min/kg)
Number in mL/min/kg, nothing else.

[in] Need clearance of Cc1cc(/C=C/C#N)cc(C)c1Cc1nc(NC2CCN(Cc3ccc(C(N)=O)cc3)CC2)ncc1-c1cncnc1 , thanks.
[out] 82.7

====

experiment: AUC (0 to t) in Sprague-Dawley rat at 2 mg/kg, iv; assay type: ADME, organism-based; set-up: dose 2 mg/kg, route iv; conditions: in vivo
assay endpoint: AUC(0-t) (ng·h/mL)
# output: bare number, implied unit ng·h/mL

[in] Value lookup for AUC(0-t); key = Cc1cc(/C=C/C#N)cc(C)c1Cc1nc(NC2CCN(Cc3ccc(C(N)=O)cc3)CC2)ncc1-c1cncnc1
[out] 400

====

test: Half life in Sprague-Dawley rat at 10 mg/kg, po; type: ADME, organism-based; conditions: in vivo
assay endpoint: half-life (h)
Entry rule: numbers only, all in h.

[in] Returns the measured half-life for the input compound. Input: Cc1cc(/C=C/C#N)cc(C)c1Cc1nc(NC2CCN(Cc3ccc(C(N)=O)cc3)CC2)ncc1-c1cncnc1
[out] 1.2

====

assay: Cmax in Sprague-Dawley rat at 10 mg/kg, po; assay type: ADME, organism-based; design: dose 10 mg/kg, route po; details: in vivo
assay endpoint: Cmax (ng/mL)
Write the value in ng/mL as a bare number.

[in] Query: Cmax; subject: Cc1cc(/C=C/C#N)cc(C)c1Cc1nc(NC2CCN(Cc3ccc(C(N)=O)cc3)CC2)ncc1-c1cncnc1
[out] 252

====

Form field: pIC50 (one value per entry).
target: Human immunodeficiency virus type 1 reverse transcriptase (Human immunodeficiency virus 1)
A value of pIC50 is the negative decimal logarithm of a concentration given in moles per litre.

smiles notation: CC(=O)c1ccc(-c2cnc(NC3CCN(Cc4ccc(S(N)(=O)=O)cc4)CC3)nc2Oc2c(C)cc(/C=C/C#N)cc2C)cc1
pIC50: 6.89
--
smiles notation: Cc1cc(/C=C/C#N)cc(C)c1Oc1nc(NC2CCN(Cc3ccc(S(N)(=O)=O)cc3)CC2)ncc1-c1ccccc1N
pIC50: 6.80
--
smiles notation: Cc1cc(/C=C/C#N)cc(C)c1Oc1nc(NC2CCN(Cc3ccc(S(C)(=O)=O)cc3)CC2)ncc1-c1ccc(F)cc1
pIC50: 6.84
--
smiles notation: Cc1cc(/C=C/C#N)cc(C)c1Oc1nc(NC2CCN(Cc3ccc(S(N)(=O)=O)cc3)CC2)ncc1-c1ccc(N)cc1
pIC50: 7.01

[in] What pIC50 appears in the records for this molecule with Human immunodeficiency virus type 1 reverse transcriptase (Human immunodeficiency virus 1)? Cc1cc(/C=C/C#N)cc(C)c1Oc1nc(NC2CCN(Cc3ccc(S(N)(=O)=O)cc3)CC2)ncc1-c1cccc(F)c1
[out] 6.71

[in] Item Cc1cc(/C=C/C#N)cc(C)c1Cc1nc(NC2CCN(Cc3ccc(C(N)=O)cc3)CC2)ncc1-c1cncnc1 with Human immunodeficiency virus type 1 reverse transcriptase (Human immunodeficiency virus 1) - pIC50?
[out] 6.92

[in] # value lookup — system Human immunodeficiency virus type 1 reverse transcriptase (Human immunodeficiency virus 1), readout pIC50, item Cc1cc(/C=C/C#N)cc(C)c1Cc1nc(NC2CCN(Cc3ccc(S(N)(=O)=O)cc3)CC2)ncc1-c1cncnc1
[out] 6.93

====

test: Tmax in Sprague-Dawley rat at 10 mg/kg, po; format: ADME, organism-based; conditions: in vivo
assay endpoint: Tmax (h)
# number only, unit h dropped from output

[in] So what's the measured Tmax for this one? Cc1cc(/C=C/C#N)cc(C)c1Cc1nc(NC2CCN(Cc3ccc(C(N)=O)cc3)CC2)ncc1-c1cncnc1
[out] 2

====

Each item that follows carries a reported selectivity ratio.
assay: Selectivity index, ratio of CC50 for human MT4 cells to EC50 for NNRTI-resistant HIV-1 RES056 infected in human MT4 cells; assay type: toxicity, cell-based; conditions: read-out: Selectivity Index
// keep it numeric: no unit symbol after the value

smiles notation: CC(=O)c1ccc(-c2cnc(NC3CCN(Cc4ccc(S(N)(=O)=O)cc4)CC3)nc2Oc2c(C)cc(/C=C/C#N)cc2C)cc1
selectivity ratio: 198
--
smiles notation: Cc1cc(/C=C/C#N)cc(C)c1Cc1nc(NC2CCN(Cc3ccc(C(N)=O)cc3)CC2)ncc1-c1cnc(N)nc1
selectivity ratio: 45
--
smiles notation: Cc1cc(/C=C/C#N)cc(C)c1Oc1nc(NC2CCN(Cc3ccc(S(N)(=O)=O)cc3)CC2)ncc1-c1ccc(F)cc1
selectivity ratio: 142

Next compound, selectivity ratio to be filled in.
[in] Fill in the blank: the reported selectivity ratio of Cc1cc(/C=C/C#N)cc(C)c1Cc1nc(NC2CCN(Cc3ccc(S(C)(=O)=O)cc3)CC2)ncc1-c1cnc(N)nc1 is ____.
[out] 58

====

tested on: Human immunodeficiency virus 1; experiment: Antiviral activity against HIV-1 harboring Y181C mutant infected in human MT4 cells assessed as virus-induced cytopathicity treated for 5 days by MTT assay; assay type: functional, organism-based; settings: Human immunodeficiency virus 1, MT4, 120 h; read-out: EC50
// thresholds for EC50 classes: Low (below 8 nM), Medium (8 nM to below 10 nM), High (10 nM or more)

Examples from the recorded data:
smiles notation: Cc1cc(/C=C/C#N)cc(C)c1Oc1nc(NC2CCN(Cc3ccc(C(N)=O)cc3)CC2)ncc1-c1ccc(N)cc1
class label: Low
--
smiles notation: Cc1cc(/C=C/C#N)cc(C)c1Oc1nc(NC2CCN(Cc3ccc(S(N)(=O)=O)cc3)CC2)ncc1-c1cccc(O)c1
class label: High
--
smiles notation: Cc1cc(/C=C/C#N)cc(C)c1Oc1nc(NC2CCN(Cc3ccc(C(N)=O)cc3)CC2)ncc1-c1cccc(O)c1
class label: Medium

[in] GET /class?item= Cc1cc(/C=C/C#N)cc(C)c1Oc1nc(NC2CCN(Cc3ccc(S(N)(=O)=O)cc3)CC2)ncc1-c1cccc(N)c1
[out] High

[in] Where would Cc1cc(C#N)cc(C)c1Oc1nc(Nc2ccc(C#N)cc2)nc(N)c1Br land among the classes by reported EC50?
[out] High

====

# IC50 measurements, system: Human immunodeficiency virus type 1 reverse transcriptase (Human immunodeficiency virus 1)
Just the number in nM, nothing appended.

Answered cases to consult:
smiles notation: Cc1cc(/C=C/C#N)cc(C)c1Oc1nc(NC2CCN(Cc3ccc(S(C)(=O)=O)cc3)CC2)ncc1-c1ccc(O)cc1
assay target: Human immunodeficiency virus type 1 reverse transcriptase (Human immunodeficiency virus 1)
value reported: 97
//
smiles notation: Cc1cc(/C=C/C#N)cc(C)c1Oc1nc(NC2CCN(Cc3ccc(S(C)(=O)=O)cc3)CC2)ncc1-c1ccccc1F
assay target: Human immunodeficiency virus type 1 reverse transcriptase (Human immunodeficiency virus 1)
value reported: 161

[in] Can you look up IC50 on Human immunodeficiency virus type 1 reverse transcriptase (Human immunodeficiency virus 1) for Cc1cc(/C=C/C#N)cc(C)c1Cc1nc(NC2CCN(Cc3ccc(S(C)(=O)=O)cc3)CC2)ncc1-c1cnc(N)nc1 ?
[out] 108

[in] # returns recorded IC50 (system: Human immunodeficiency virus type 1 reverse transcriptase (Human immunodeficiency virus 1)) for Cc1cc(/C=C/C#N)cc(C)c1Cc1nc(NC2CCN(Cc3ccc(C(N)=O)cc3)CC2)ncc1-c1cnc(N)nc1
[out] 157

[in] API: value(readout=IC50, system=Human immunodeficiency virus type 1 reverse transcriptase (Human immunodeficiency virus 1)) for record Cc1cc(/C=C/C#N)cc(C)c1Oc1nc(NC2CCN(Cc3ccc(S(C)(=O)=O)cc3)CC2)ncc1-c1ccccc1O
[out] 328

[in] Under Human immunodeficiency virus type 1 reverse transcriptase (Human immunodeficiency virus 1): IC50 value of Cc1cc(/C=C/C#N)cc(C)c1Oc1nc(NC2CCN(Cc3ccc(S(N)(=O)=O)cc3)CC2)ncc1-c1ccccc1O ?
[out] 205

[in] Find IC50 (Human immunodeficiency virus type 1 reverse transcriptase (Human immunodeficiency virus 1)) for the entry Cc1cc(/C=C/C#N)cc(C)c1Oc1nc(NC2CCN(Cc3ccc(C(N)=O)cc3)CC2)ncc1-c1ccc2c(c1)OCO2
[out] 110
